Overview of reported Ibalizumab ELISA binning signal across a group of binders:
TGT: T1, huCD4-HIS (human, UniProt P01730 26-390, limits assumed)
T1 construct: the ELISA is not described in the text of this stretch; also called human CD4-HIS
PROCEDURE DETAILS: ELISA binning; competitor ibalizumab; 100 ng/mL huCD4-HIS, anti-HIS HRP; background 45, max binding 3000000
OUTCOME MEASURE: Ibalizumab ELISA binning signal

INSERT INTO assay_data (binder, outcome_measure, observed_value) VALUES
  ('75110_14P08A (antibody, V domains shown, Tested as non-clonal AlivaMab Mouse Kappa hybridoma supernatant (detected with anti-mouse Fc gamma and anti-human kappa)) VH: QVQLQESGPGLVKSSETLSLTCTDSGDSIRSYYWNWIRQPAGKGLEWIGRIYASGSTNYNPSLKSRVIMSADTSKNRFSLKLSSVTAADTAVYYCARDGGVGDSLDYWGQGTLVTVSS VL: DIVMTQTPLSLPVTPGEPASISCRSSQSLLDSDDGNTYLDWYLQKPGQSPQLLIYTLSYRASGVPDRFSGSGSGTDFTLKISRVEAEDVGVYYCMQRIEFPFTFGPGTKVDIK', 'Ibalizumab ELISA binning signal', '2.2e+06'),
  ('75110_08F20A (antibody, V domains shown, Tested as non-clonal AlivaMab Mouse Kappa hybridoma supernatant (detected with anti-mouse Fc gamma and anti-human kappa)) VH: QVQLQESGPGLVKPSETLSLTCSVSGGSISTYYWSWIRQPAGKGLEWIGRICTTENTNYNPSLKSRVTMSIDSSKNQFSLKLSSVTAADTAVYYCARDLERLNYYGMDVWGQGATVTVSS VL: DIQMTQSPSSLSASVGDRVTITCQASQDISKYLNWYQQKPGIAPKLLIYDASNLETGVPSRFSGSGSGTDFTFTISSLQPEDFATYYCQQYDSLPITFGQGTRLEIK', 'Ibalizumab ELISA binning signal', '1.41e+06'),
  ('75110_10O16A (antibody, V domains shown, Tested as non-clonal AlivaMab Mouse Kappa hybridoma supernatant (detected with anti-mouse Fc gamma and anti-human kappa); also called 75110_10016A) VH: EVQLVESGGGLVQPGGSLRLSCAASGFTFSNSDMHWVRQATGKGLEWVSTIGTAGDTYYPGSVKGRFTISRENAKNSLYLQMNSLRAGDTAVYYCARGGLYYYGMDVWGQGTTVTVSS VL: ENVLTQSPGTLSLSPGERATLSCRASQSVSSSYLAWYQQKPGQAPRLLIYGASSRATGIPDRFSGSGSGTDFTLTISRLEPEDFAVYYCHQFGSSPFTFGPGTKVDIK', 'Ibalizumab ELISA binning signal', '2.37e+06'),
  ('75110_06C16A (antibody, V domains shown, Tested as non-clonal AlivaMab Mouse Kappa hybridoma supernatant (detected with anti-mouse Fc gamma and anti-human kappa)) VH: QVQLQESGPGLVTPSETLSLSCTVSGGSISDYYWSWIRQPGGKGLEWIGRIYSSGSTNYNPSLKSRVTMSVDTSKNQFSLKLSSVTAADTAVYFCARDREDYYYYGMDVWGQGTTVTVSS VL: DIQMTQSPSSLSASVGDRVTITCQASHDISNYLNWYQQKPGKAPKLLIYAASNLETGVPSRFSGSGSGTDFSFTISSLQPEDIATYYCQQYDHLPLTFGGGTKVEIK', 'Ibalizumab ELISA binning signal', '1.35e+06');

Numbers sourced from patent US20220112288A1.
